- measurementProtocol: molar heat capacity at constant pressure
- runConditions: 309.15 K; 101.33 kPa; Liquid; Small sample (50 mg) DSC
Numbers after ± are expanded uncertainties.
recordedEndpoint: molar heat capacity at constant pressure
Please append the unit to your numeric answer.

Solved cases below.
# compound, molar heat capacity at constant pressure
records = [
    ("Clc1cccc(Cl)c1 [1,3-dichlorobenzene]", "172.58 ± 2.7 J/K/mol"),
    ("Brc1cccc(Br)c1 [1,3-dibromobenzene]", "180.78 ± 2.8 J/K/mol"),
]

Item: Brc1ccccc1 [bromobenzene] | molar heat capacity at constant pressure: 156.93 ± 2.4 J/K/mol

###

Please go through the items and note down their molar heat capacity at constant pressure.
- measurementProtocol: molar heat capacity at constant pressure
- runConditions: 339.15 K; 101.33 kPa; Liquid; Small sample (50 mg) DSC
Give bare numbers, in J/K/mol.

# structureString, resultUnit, molar heat capacity at constant pressure
rows = [
    ("Clc1ccc(Cl)cc1", "J/K/mol", 179.81),
]

Can you give me molar heat capacity at constant pressure for all of these, one by one?
1. Clc1cccc(Cl)c1
2. Brc1ccccc1
3. Clc1cccc(Br)c1
4. Clc1ccc(Cl)c(Cl)c1Cl
5. Clc1ccc(Cl)c(Cl)c1
6. Brc1cccc(Br)c1
7. Clc1ccccc1

Result:
1. 179.71
2. 163.89
3. 182.92
4. 227.13
5. 202.71
6. 187.08
7. 160.85

###

- measurementProtocol: molar heat capacity at constant pressure
- runConditions: 327.15 K; 101.33 kPa; Liquid; Small sample (50 mg) DSC
recordedEndpoint: molar heat capacity at constant pressure (J/K/mol)
One number for each entry, in J/K/mol.

# structureString, molar heat capacity at constant pressure, J/K/mol
records = [
    ("Brc1ccccc1", 161.06),
    ("Clc1cccc(Cl)c1Cl", 201.44),
    ("Clc1ccc(Cl)cc1", 177.09),
    ("Clc1ccccc1Cl", 177.26),
    ("Clc1ccc(Cl)c(Cl)c1", 200.38),
]

Would you kindly look at the next entry?
The measured molar heat capacity at constant pressure associated with `Clc1ccccc1Br` reads 181.03

###

- measurementProtocol: molar heat capacity at constant pressure
- runConditions: 303.15 K; 101.33 kPa; Liquid; Small sample (50 mg) DSC
± gives the expanded uncertainty stated by the source.
recordedEndpoint: molar heat capacity at constant pressure
Please answer using a numeric value trailed by its unit.

# compound, endpointValue
records = [
    ("Clc1cccc(Br)c1 [1-bromo-3-chlorobenzene]", "174.98 ± 2.7 J/K/mol"),
]

Could you report molar heat capacity at constant pressure for every entry in the following list?
1. Clc1ccc(Cl)c(Cl)c1 [1,2,4-trichlorobenzene]
2. Brc1cccc(Br)c1 [1,3-dibromobenzene]
3. Brc1ccccc1 [bromobenzene]
4. Clc1ccccc1 [chlorobenzene]
5. Brc1ccccc1Br [1,2-dibromobenzene]

Result:
1. 195.92 ± 3 J/K/mol
2. 179.58 ± 2.8 J/K/mol
3. 155.62 ± 2.4 J/K/mol
4. 152.1 ± 2.4 J/K/mol
5. 180.85 ± 2.8 J/K/mol

###

Give measured molar heat capacity at constant pressure for each item. Keep answers brief.
- measurementProtocol: molar heat capacity at constant pressure
- runConditions: 295.15 K; 101.33 kPa; Liquid; Small sample (50 mg) DSC
Give bare numbers, in J/K/mol.

Consider the following illustrative entries.
# compound, resultUnit, molar heat capacity at constant pressure
measured = [
    ("Clc1ccccc1 [chlorobenzene]", "J/K/mol", 150.29),
    ("Brc1cccc(Br)c1 [1,3-dibromobenzene]", "J/K/mol", 178.08),
    ("Brc1ccccc1Br [1,2-dibromobenzene]", "J/K/mol", 179.42),
    ("Brc1ccccc1 [bromobenzene]", "J/K/mol", 153.94),
    ("Clc1cccc(Cl)c1 [1,3-dichlorobenzene]", "J/K/mol", 169.55),
    ("Clc1cccc(Br)c1 [1-bromo-3-chlorobenzene]", "J/K/mol", 173.36),
]

# per-item lookup of molar heat capacity at constant pressure; items listed below
1. Clc1ccccc1Cl [1,2-dichlorobenzene]
2. Clc1ccc(Cl)c(Cl)c1 [1,2,4-trichlorobenzene]
3. Clc1ccccc1Br [1-bromo-2-chlorobenzene]

Result:
[170.05, 194.57, 174.39]
